# assayed_system: GST-Bcl-2 (Homo sapiens)
# Sequence (P10415 whole entry): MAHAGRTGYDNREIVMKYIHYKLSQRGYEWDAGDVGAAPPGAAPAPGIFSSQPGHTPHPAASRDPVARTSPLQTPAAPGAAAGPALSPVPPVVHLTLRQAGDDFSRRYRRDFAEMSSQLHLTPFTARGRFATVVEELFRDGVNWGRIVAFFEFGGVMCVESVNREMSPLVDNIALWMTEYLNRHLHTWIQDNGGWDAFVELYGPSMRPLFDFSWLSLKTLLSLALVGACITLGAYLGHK
# protocol: TR-FRET binding assay, GST-Bcl-2 with F-Bak peptide probe
# condition_notes: TR-FRET Binding Affinity, GST-Bcl-2, F-Bak peptide probe
pKi: −log10 of the molar value.
Values of pKi greater than or equal to 9 map to MET; values below map to NOT MET.

| compound | category |
| --- | --- |
| CC1(C)CCC(CN2CCN(c3ccc(C(=O)NS(=O)(=O)c4ccc(NC5CCN(CCn6cccn6)CC5)c([N+](=O)[O-])c4)c(Oc4ccc5[nH]ccc5c4)c3)CC2)=C(c2ccc(Cl)cc2)C1 | MET |
| O=C(NS(=O)(=O)c1ccc(NC2CCN(C3CCOCC3)CC2)c([N+](=O)[O-])c1)c1ccc(N2CCN(Cc3ccc(C(F)(F)F)cc3-c3ccc(Cl)cc3)CC2)cc1Oc1ccc2[nH]ccc2c1 | NOT MET |
| CO[C@H]1CC[C@H](CNc2ccc(S(=O)(=O)NC(=O)c3ccc(N4CCN(CC5=C(c6ccc(Cl)cc6)CC(C)(C)CC5)CC4)cc3Oc3ccc4[nH]ccc4c3)cc2[N+](=O)[O-])CC1 | MET |
| COCCN1CCC(Nc2ccc(S(=O)(=O)NC(=O)c3ccc(N4CCN(CC5=C(c6ccc(Cl)cc6)CC(C)(C)CC5)CC4)cc3Oc3ccc4[nH]ccc4c3)cc2[N+](=O)[O-])CC1 | MET |
| CN1CCC(Nc2ccc(S(=O)(=O)NC(=O)c3ccc(N4CCN(CC5=C(c6ccc(Cl)cc6)CC(C)(C)CC5)CC4)cc3Nc3cccnc3)cc2[N+](=O)[O-])CC1 | NOT MET |
| CC1(C)CCC(CN2CCN(c3ccc(C(=O)NS(=O)(=O)c4cnc(OCC5CCOCC5)c(Cl)c4)c(Oc4cccc5[nH]ncc45)c3)CC2)=C(c2ccc(Cl)cc2)C1 | MET |
| CC1(C)CCC(CN2CCN(c3ccc(C(=O)NS(=O)(=O)c4ccc(NCC5CN(CC(F)F)CCO5)c([N+](=O)[O-])c4)c(Oc4cccc5[nH]cnc45)c3)CC2)=C(c2ccc(Cl)cc2)C1 (centres unmarked) | MET |
| CC1(C)CCC(CN2CCN(c3ccc(C(=O)NS(=O)(=O)c4ccc(N[C@H]5CC[C@H](N6CCOCC6)CC5)c([N+](=O)[O-])c4)c(Oc4cccc5[nH]ccc45)c3)CC2)=C(c2ccc(Cl)cc2)C1 | MET |
| CC1(C)CCC(CN2CCN(c3ccc(C(=O)NS(=O)(=O)c4cnc(NCC5(F)CCOCC5)c(Cl)c4)c(Oc4cccc5[nH]ncc45)c3)CC2)=C(c2ccc(Cl)cc2)C1 | MET |
| CC1(C)CCC(CN2CCN(c3ccc(C(=O)NS(=O)(=O)c4ccc(NCC5CCOCC5)c(C#N)c4)c(Oc4ccc5[nH]ccc5c4)c3)CC2)=C(c2ccc(Cl)cc2)C1 | NOT MET |
| CC1(C)CCC(CN2CCN(c3ccc(C(=O)NS(=O)(=O)c4ccc(OCC5CCOCC5)c([N+](=O)[O-])c4)c(Oc4cccc5[nH]ccc45)c3)CC2)=C(c2ccc(Cl)cc2)C1 | MET |
| CC1(C)CCC(CN2CCN(c3ccc(C(=O)NS(=O)(=O)c4ccc(NCCCS(C)(=O)=O)c([N+](=O)[O-])c4)c(Oc4cccc5[nH]ccc45)c3)CC2)=C(c2ccc(Cl)cc2)C1 | MET |
| CCN(CC)C1CCC(Nc2ccc(S(=O)(=O)NC(=O)c3ccc(N4CCN(CC5=C(c6ccc(Cl)cc6)CC(C)(C)CC5)CC4)cc3Oc3ccc4[nH]ccc4c3)cc2[N+](=O)[O-])CC1 (centres unmarked) | MET |
| COCCOCCSc1ccc(S(=O)(=O)NC(=O)c2ccc(N3CCN(CC4=C(c5ccc(Cl)cc5)CC(C)(C)CC4)CC3)cc2Oc2ccc3[nH]ccc3c2)cc1[N+](=O)[O-] | MET |
| CO[C@H]1CC[C@H](COc2ncc(S(=O)(=O)NC(=O)c3ccc(N4CCN(CC5=C(c6ccc(Cl)cc6)CC(C)(C)CC5)CC4)cc3Oc3cccc4[nH]ncc34)cc2Cl)CC1 | MET |
| C[C@H](c1ccccc1-c1ccc(Cl)cc1)N1CCN(c2ccc(C(=O)NS(=O)(=O)c3ccc(NCC4CCOCC4)c([N+](=O)[O-])c3)c(Oc3cccc4[nH]ccc34)c2)CC1 | NOT MET |
| CC1(C)CCC(CN2CCN(c3ccc(C(=O)NS(=O)(=O)c4ccc(Nc5ccc(O)cc5)c([N+](=O)[O-])c4)c(Oc4ccc5[nH]ccc5c4)c3)CC2)=C(c2ccc(Cl)cc2)C1 | NOT MET |
| CC1(C)CCC(CN2CCN(c3ccc(C(=O)NS(=O)(=O)c4ccc(NCCCN5CCOCC5)c(S(=O)(=O)C(F)(F)F)c4)c(Oc4cccc5[nH]ccc45)c3)CC2)=C(c2ccc(Cl)cc2)C1 | MET |
